Entries and their IC50
# test system: Sodium channel protein type 9 subunit alpha (Homo sapiens, UniProt Q15858)
# Sequence (Q15858 whole entry): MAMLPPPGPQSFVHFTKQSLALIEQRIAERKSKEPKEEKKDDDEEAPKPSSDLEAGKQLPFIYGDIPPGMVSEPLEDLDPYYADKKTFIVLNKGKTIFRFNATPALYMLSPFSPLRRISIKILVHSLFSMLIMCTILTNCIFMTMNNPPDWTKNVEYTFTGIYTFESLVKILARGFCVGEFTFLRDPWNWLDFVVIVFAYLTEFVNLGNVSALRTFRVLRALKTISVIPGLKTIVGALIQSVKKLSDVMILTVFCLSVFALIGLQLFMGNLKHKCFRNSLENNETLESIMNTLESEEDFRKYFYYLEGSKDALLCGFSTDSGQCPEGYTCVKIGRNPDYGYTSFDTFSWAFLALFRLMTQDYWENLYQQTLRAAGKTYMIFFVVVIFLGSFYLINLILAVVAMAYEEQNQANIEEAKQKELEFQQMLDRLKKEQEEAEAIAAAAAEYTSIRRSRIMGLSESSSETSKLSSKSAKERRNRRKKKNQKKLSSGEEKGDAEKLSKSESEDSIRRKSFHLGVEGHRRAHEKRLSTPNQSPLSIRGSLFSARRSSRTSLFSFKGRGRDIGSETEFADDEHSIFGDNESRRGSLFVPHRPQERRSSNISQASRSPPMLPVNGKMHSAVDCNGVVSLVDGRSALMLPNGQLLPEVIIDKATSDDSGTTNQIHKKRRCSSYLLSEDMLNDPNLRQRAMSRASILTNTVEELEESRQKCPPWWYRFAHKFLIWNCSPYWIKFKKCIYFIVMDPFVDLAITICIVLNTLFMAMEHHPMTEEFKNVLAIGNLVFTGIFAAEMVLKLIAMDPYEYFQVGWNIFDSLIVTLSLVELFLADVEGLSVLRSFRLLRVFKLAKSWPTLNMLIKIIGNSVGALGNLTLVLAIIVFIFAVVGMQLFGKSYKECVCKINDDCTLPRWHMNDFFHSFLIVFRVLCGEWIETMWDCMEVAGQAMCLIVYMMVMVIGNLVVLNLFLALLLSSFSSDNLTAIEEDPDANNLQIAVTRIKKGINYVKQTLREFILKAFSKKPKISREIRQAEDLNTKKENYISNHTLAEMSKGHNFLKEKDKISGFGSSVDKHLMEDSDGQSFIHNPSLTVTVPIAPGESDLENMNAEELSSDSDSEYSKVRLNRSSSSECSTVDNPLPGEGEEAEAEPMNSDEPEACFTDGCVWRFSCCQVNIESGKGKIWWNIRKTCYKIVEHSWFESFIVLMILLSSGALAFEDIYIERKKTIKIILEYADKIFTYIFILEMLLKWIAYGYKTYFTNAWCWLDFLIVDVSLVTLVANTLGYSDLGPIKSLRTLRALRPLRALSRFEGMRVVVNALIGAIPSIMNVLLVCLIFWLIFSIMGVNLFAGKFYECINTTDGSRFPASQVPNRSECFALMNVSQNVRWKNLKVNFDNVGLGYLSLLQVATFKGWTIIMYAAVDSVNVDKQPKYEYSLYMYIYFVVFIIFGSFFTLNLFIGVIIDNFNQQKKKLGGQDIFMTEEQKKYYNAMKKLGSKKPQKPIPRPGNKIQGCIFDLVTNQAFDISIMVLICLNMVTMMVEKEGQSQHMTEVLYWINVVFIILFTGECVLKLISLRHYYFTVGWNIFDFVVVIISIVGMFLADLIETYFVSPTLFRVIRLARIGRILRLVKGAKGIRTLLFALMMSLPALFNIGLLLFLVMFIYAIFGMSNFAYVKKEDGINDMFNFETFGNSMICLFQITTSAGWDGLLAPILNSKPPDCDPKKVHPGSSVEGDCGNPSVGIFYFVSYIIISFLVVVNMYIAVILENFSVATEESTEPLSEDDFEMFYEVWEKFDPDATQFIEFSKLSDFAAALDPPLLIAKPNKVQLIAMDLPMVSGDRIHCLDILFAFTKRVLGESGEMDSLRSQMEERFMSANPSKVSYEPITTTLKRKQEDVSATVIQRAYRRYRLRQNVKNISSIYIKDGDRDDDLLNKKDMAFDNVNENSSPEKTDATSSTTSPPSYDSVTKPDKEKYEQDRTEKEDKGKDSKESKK
# protocol details: Blockade of human Nav1.7 by FRET assay

Past entries and their recorded results:
CN1C(=O)[C@H](NC(=O)[C@@H](Cc2ccccc2)NC(=O)C2CC2)N=C(c2ccccc2)c2ccccc21 = > 1000 nM
CC(C)N1C(=O)[C@H](NC(=O)[C@H](Cc2ccccc2OC(F)(F)F)NC(=O)OC(C)(C)C)CCc2ccccc21 = 214 nM
C[C@@H](NC(=O)OC(C)(C)C)C(=O)N[C@@H]1N=C(c2ccccc2)c2ccccc2N(C)C1=O = > 1000 nM
CC(C)N1C(=O)[C@H](NC(=O)[C@@H](Cc2ccccc2OC(F)(F)F)NC(=O)OC(C)(C)C)CCc2ccccc21 = 35 nM
CC(C)N1C(=O)[C@H](NC(=O)[C@@H](Cc2cccc(F)c2C(F)(F)F)NC(=O)OC(C)(C)C)CCc2ccccc21 = 65 nM
CN1C(=O)[C@H](NC(=O)[C@@H](Cc2cnc[nH]2)NC(=O)OC(C)(C)C)N=C(c2ccccc2)c2ccccc21 = > 1000 nM
CC(C)(C)OC(=O)N[C@@H](CN[C@@H]1CCc2ccccc2N(CC(F)(F)F)C1=O)Cc1ccccc1 = 885 nM

Now take the following compound into account.
**Q:** Answer with the recorded IC50 of CN1C(=O)[C@H](NC(=O)[C@@H](Cc2ccccc2)N(C)C(=O)OC(C)(C)C)N=C(c2ccccc2)c2ccccc21 only.
**A:** > 1000 nM

###

# test system: Sodium channel protein type 9 subunit alpha (Homo sapiens, UniProt Q15858)
# protocol details: Blockade of human Nav1.7 by FRET assay
Entries and their IC50

Past entries and their recorded results:
CN1C(=O)[C@H](NC(=O)[C@@H](Cc2ccccc2)NC(=O)C23CC4CC(CC(C4)C2)C3)N=C(c2ccccc2)c2ccccc21 = 420 nM
CC(C)N1C(=O)[C@@H](NC(=O)[C@@H](Cc2ccccc2OC(F)(F)F)NC(=O)OC(C)(C)C)CCc2ccccc21 = 32 nM
CN1C(=O)[C@H](NC(=O)[C@H](NC(=O)OC(C)(C)C)c2ccccc2)N=C(c2ccccc2)c2ccccc21 = 375 nM

Now take the following compound into account.
**Q:** Answer with the recorded IC50 of CN1C(=O)[C@H](NC(=O)[C@@H](CC2CCCCC2)NC(=O)OC(C)(C)C)N=C(c2ccccc2)c2ccccc21 only.
**A:** > 1000 nM

###

# protocol details: Bioavailability in rat at 3.0 mg/kg, po
# Type: ADME, organism-based
# test parameters: in vivo
Entries and their bioavailability
Give the value, in units of %, as a plain number.

**Q:** Answer with the recorded bioavailability of CC(C)N1C(=O)[C@@H](NC(=O)[C@@H](Cc2ccccc2OC(F)(F)F)NC(=O)OC(C)(C)C)CCc2ccccc21 only.
**A:** 15

**Q:** Answer with the recorded bioavailability of CC(C)N1C(=O)[C@H](NC(=O)[C@@H](Cc2ccccc2F)NC(=O)OC(C)(C)C)CCc2ccccc21 only.
**A:** 14

**Q:** Answer with the recorded bioavailability of CC(C)N1C(=O)[C@H](NC(=O)[C@@H](Cc2ccccc2C(F)(F)F)NC(=O)OC(C)(C)C)CCc2ccccc21 only.
**A:** 35

**Q:** Answer with the recorded bioavailability of CC(C)N1C(=O)[C@H](NC(=O)[C@@H](Cc2c(F)cccc2C(F)(F)F)NC(=O)OC(C)(C)C)CCc2ccccc21 only.
**A:** 28

**Q:** Answer with the recorded bioavailability of CC(C)N1C(=O)[C@H](NC(=O)[C@@H](Cc2ccccc2OC(F)(F)F)NC(=O)OC(C)(C)C)CCc2ccccc21 only.
**A:** 24
